# reported pIC50; entries follow
- System: pseudotyped SARS-CoV-2 particle (VSV-SARS-CoV-2-S virus, Wuhan-Hu-1 spike) infecting BHK21-hACE2 cells
- details: 1 h
pIC50: −log10 of the molar value. Ends that are not written are not given here.

{"polymer sequence": "HIQYDMAYAAQPFLLRNG [ACE378–395]", "pIC50": 8.42}
{"polymer sequence": "AWDLGKGDFRIL [ACE348–359]", "pIC50": 7.51}
{"polymer sequence": "LPNMTQGFWENSML [ACE320–333]", "pIC50": 7.36}
{"polymer sequence": "QKLFNMLRLGKS [ACE552–563]", "pIC50": 7.90}
